Biological target: Thyrotropin releasing hormone degrading enzyme (Sus scrofa)
Assay: Substrate activity at pig brain TRH-DE assessed as retention time at 1 mM incubated for 18 hrs by HPLC analysis
Non-standard residues stand in square brackets, D forms with d. Residues, ends and D or L forms follow the SMILES beside them. *: point of attachment. pGlu = O=C1CC[C@@H](C(=O)O)N1; NHBn = c1ccc(CN*)cc1
Quick reference for Retention time among some molecules

molecule	Retention time, min
COc1ccc(NC(=O)[C@@H]2CCCN2C(=O)[C@H](CC(N)=O)NC(=O)[C@@H]2CCC(=O)N2)cc1	15
NC(=O)C[C@H](NC(=O)[C@@H]1CCC(=O)N1)C(=O)N1CCC[C@H]1C(=O)NCc1ccccc1 ([pGlu]-Asn-Pro-NHBn)	14.3
COc1cccc(NC(=O)[C@@H]2CCCN2C(=O)[C@H](CC(N)=O)NC(=O)[C@@H]2CCC(=O)N2)c1	15.9
NC(=O)C[C@H](NC(=O)[C@@H]1CCC(=O)N1)C(=O)N1CCC[C@H]1C(=O)NC(=O)C1CCCc2ccccc21 (stereo partly specified)	18.4
NC(=O)C[C@H](NC(=O)[C@@H]1CCC(=O)N1)C(=O)N1CCC[C@H]1C(=O)Nc1ccccc1CO	11.9
COc1ccccc1NC(=O)[C@@H]1CCCN1C(=O)[C@H](CC(N)=O)NC(=O)[C@@H]1CCC(=O)N1	15.4
